# assaySummary: LAP4-GFP expression modulators in yeast, confirmation, cell-based, cherry picks, flow cytometry, mother/daughter gates (AID 2271)
# details: S. cerevisiae LAP4-GFP strain, 3 h, at 10 µM, 100 means same as DMSO control
Activity calls are given as the source filed them.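 How the source made its calls: active means GFP response above 150% of the DMSO control; inconclusive means fewer than 70 events counted in any yeast strain; inactive means the rest.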
Parameter call: string, one of y (active), n (inactive)

### Prompt Short answer needed: outcome of this test for "O=C(/C(=C/O)N=Nc1ccc(Cl)cc1)c1ccncc1" ?
### Response n

### Prompt And what about the compound "COc1cc(/C=C2\N=C(c3ccccc3)OC2=O)ccc1OCc1c(C)no[n+]1[O-]" ?
### Response n

### Prompt And the next one, "CCOc1ccccc1NC(=O)c1nc(S(=O)(=O)Cc2cccc(C)c2)ncc1Cl" ?
### Response n

### Prompt Same question, O=C1CC(SCCO)C(=O)N1c1ccc(Oc2ccccc2)cc1 (stereo not given) this time
### Response n

### Prompt Similarly, "O=c1c(-c2ccc(Cl)cc2)[n+]([O-])c2ccccc2n1O" ?
### Response y

### Prompt Queued: COc1cccc(C2CC(c3c(-c4ccccc4)c4cc(Cl)ccc4[nH]c3=O)=NN2S(C)(=O)=O)c1OC (stereo not given)
### Response n

### Prompt COc1ccc(N2CCN(C(=O)C3CCCN(S(=O)(=O)c4ccc(C)cc4)C3)CC2)cc1 (stereo not given) ?
### Response n

### Prompt Would you kindly repeat that for "O=[N+]([O-])c1cnc(Sc2ccncn2)s1" ?
### Response y

### Prompt What about "O=C(COc1ccc(F)cc1Cl)Nc1nc(-c2ccccn2)cs1" ?
### Response n

### Prompt Could you do the same for "CN(C)c1ccc(/C=N/NC(=O)c2ccc(Cl)cc2)cc1" , please?
### Response n
